Where do the numbers come from? From the kinase profiling compilation of Christmann-Franck et al. (2016).

Biological target: TGFBR2 (human) (UniProt P37173)
Sequence (P37173 whole entry, looked up): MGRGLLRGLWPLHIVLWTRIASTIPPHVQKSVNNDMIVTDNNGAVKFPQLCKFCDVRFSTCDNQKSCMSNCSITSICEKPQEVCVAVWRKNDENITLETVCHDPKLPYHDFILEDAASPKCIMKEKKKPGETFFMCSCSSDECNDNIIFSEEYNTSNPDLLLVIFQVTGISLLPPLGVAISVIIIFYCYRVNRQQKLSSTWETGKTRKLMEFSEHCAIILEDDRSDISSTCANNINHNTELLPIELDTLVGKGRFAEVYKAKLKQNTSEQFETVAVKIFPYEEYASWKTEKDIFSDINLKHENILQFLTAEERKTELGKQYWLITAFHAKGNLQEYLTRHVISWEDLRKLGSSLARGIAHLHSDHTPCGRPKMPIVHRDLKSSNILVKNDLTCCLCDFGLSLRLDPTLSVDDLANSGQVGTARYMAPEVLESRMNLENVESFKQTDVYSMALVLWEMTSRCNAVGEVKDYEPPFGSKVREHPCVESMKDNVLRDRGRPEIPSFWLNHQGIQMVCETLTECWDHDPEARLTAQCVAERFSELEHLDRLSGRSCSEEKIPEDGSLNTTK
Assay: radiometric filter-binding kinase assay, Kinase HotSpot
Conditions: compound 0.5 µM; ATP 10 µM
// reported residual activity for each item listed
measured-endpoint: residual activity (%)

> print(dat)
                           structure.smiles  measured.endpoint  result.units  value.reported
1  N#C/C(=C(/N)Sc1ccc(N)cc1)c1ccccc1C(F)(F)F  residual activity             %             113
2  CNC(=O)c1cc(Oc2ccc(NC(=O)Nc3ccc(Cl)c(C(F)(F)F)c3)cc2)ccn1  residual activity             %            99.9
3  COc1ccc2c(c[n+](C)c3c4cc5c(cc4ccc23)OCO5)c1OC  residual activity             %            71.6
4  O=C1NC(=O)C(c2cn(CCCn3ccnc3)c3ccccc23)=C1Nc1ccccc1  residual activity             %             134
5          O=c1cc(N2CCOCC2)oc2c1ccc1ccccc12  residual activity             %             122
6                 CC(=O)c1ccc(N2CCOCC2)cc1O  residual activity             %             132

###

Molecular target: UniProt P17948
Sequence (P17948 whole entry, looked up): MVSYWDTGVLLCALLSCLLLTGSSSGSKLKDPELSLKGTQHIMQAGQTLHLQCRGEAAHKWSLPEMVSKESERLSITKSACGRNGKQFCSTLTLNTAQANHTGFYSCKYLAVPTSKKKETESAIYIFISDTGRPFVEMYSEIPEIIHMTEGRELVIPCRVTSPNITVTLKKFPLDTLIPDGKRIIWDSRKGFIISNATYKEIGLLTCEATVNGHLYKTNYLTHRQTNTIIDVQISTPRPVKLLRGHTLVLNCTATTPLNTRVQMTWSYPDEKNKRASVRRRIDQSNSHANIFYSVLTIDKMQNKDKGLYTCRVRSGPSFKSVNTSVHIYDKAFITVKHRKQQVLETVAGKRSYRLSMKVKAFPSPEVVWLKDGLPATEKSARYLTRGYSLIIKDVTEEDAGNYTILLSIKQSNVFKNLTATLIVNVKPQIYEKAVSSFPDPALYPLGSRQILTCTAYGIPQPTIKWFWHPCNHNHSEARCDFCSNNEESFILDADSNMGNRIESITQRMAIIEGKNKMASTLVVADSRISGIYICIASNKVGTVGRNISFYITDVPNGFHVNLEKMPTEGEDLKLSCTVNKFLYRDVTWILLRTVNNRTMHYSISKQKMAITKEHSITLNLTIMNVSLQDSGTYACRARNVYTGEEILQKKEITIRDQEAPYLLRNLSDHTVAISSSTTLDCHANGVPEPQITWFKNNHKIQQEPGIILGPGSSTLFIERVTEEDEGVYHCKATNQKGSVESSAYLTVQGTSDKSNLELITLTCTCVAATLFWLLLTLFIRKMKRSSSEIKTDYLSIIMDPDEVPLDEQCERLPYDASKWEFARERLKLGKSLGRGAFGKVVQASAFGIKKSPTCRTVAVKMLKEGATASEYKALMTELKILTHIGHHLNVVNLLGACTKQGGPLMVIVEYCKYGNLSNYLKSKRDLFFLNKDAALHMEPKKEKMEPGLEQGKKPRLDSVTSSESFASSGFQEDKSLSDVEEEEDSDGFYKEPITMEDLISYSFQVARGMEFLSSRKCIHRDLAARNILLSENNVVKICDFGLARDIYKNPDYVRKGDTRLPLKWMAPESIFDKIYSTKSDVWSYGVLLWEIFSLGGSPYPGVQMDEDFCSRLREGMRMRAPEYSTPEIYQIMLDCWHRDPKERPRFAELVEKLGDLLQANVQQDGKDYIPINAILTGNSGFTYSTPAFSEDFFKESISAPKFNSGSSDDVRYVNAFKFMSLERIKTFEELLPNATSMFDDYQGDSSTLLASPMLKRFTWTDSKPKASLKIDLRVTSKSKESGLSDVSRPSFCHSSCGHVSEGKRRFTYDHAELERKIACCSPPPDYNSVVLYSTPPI
Assay: radiometric filter-binding kinase assay, Kinase HotSpot
Conditions: compound 0.5 µM; ATP 10 µM
measured-endpoint: residual activity (%)

> print(dat)
                            structure.smiles  result.units  value.reported
 1  O=C1NC(=O)/C(=C/c2ccc3c(c2)OC(F)(F)O3)S1             %            81.5
 2  O=C1NC(=O)c2c1c1c3ccccc3n3c1c1c2c2ccccc2n1C1CCC3O1             %            13.3
 3     CCC(=O)Nc1ccc2ncnc(Nc3cccc(Br)c3)c2c1             %            86.9
 4  CC[n+]1c(/C=C/N(C)c2ccccc2)n(-c2ccccc2)c2ccc(-c3nc4ccccc4s3)cc21             %            94.1
 5   COc1ccc(COc2ccc(Cc3cnc(N)nc3N)cc2OC)cc1             %            99.7
 6  O=C1NC(=O)C(c2cn(CCCn3ccnc3)c3ccccc23)=C1Nc1ccccc1             %            85.7
 7  Nc1cccc(-c2cc3c(Oc4cccc(O)c4)ncnc3[nH]2)c1             %            8.56
 8  CNC(=O)c1cc(Oc2ccc(NC(=O)Nc3ccc(Cl)c(C(F)(F)F)c3)cc2)ccn1             %            50.5
 9  CCCC(=O)Oc1ccc2[nH]c(C(=O)c3cc4ccccc4[nH]3)cc2c1             %            89.7
10                 CC(=O)c1ccc(N2CCOCC2)cc1O             %            97.1

###

Biological target: STK11 (human)
Assay: radiometric filter-binding kinase assay, Kinase HotSpot
Conditions: compound 0.5 µM; ATP 10 µM
measured-endpoint: residual activity (%)

compound	measured-endpoint	value-reported
O=c1cc(N2CCOCC2)oc2c1ccc1ccccc12	residual activity	104
O=S(=O)(c1cccc2cnccc12)N1CCCNCC1	residual activity	97.6
O=C(Nc1cccc(Nc2nccc(Nc3cccc(C(F)(F)F)c3)n2)c1)C1CC1	residual activity	82.8
CCCC(=O)Oc1ccc2[nH]c(C(=O)c3cc4ccccc4[nH]3)cc2c1	residual activity	101
CCN(CC)CCNC(=O)c1c(C)[nH]c(/C=C2\C(=O)Nc3ccc(Cl)cc32)c1C	residual activity	80.7
CNC(=O)c1cc(Oc2ccc(NC(=O)Nc3ccc(Cl)c(C(F)(F)F)c3)cc2)ccn1	residual activity	104
c1ccc(-c2n[nH]c3c2oc2ccccc23)cc1	residual activity	107
Cc1ccc(S(=O)(=O)/C=C/C#N)cc1	residual activity	91.1
CO[C@H]1CC2CC[C@@H](C)[C@@](O)(O2)C(=O)C(=O)N2CCCC[C@H]2C(=O)OC([C@H](C)C[C@@H]2CC[C@@H](O)[C@H](OC)C2)CC(=O)[C@H](C)/C=C(\C)[C@@H](O)[C@@H](OC)C(=O)[C@H](C)C[C@H](C)/C=C/C=C/C=C/1C (some centres undefined)	residual activity	91.1
